Measured IC50 accompanies every entry in the list below.
Molecular target: full-length, untagged, human estrogen receptors (ERα) (Homo sapiens, UniProt P03372)
Construct: insect cell-expressed, full-length, untagged, human estrogen receptors; purchased Life Technologies (Carlsbad, Calif.); host or cells: insect cells
Sequence (P03372 whole entry): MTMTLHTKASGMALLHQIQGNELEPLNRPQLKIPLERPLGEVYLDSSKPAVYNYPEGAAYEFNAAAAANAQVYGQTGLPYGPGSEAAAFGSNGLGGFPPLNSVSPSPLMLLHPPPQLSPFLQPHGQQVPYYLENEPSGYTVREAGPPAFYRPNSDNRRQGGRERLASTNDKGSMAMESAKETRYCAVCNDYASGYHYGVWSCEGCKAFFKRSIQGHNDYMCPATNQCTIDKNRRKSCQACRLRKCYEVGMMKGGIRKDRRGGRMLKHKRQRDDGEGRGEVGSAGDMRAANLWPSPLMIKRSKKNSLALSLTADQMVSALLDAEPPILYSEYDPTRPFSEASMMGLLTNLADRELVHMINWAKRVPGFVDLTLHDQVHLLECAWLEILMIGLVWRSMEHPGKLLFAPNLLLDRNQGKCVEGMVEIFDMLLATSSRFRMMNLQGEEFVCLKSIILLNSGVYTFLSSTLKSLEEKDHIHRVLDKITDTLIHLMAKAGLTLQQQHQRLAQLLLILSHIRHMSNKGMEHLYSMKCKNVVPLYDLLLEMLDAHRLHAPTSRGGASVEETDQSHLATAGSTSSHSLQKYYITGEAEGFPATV
Assay: ERα fluorescence polarization (FP) binding assay
Settings: fluorescence polarization, Fluormone ES2; read-out: IC50 (nM) ERα
Reply numerically in nM, unit not repeated.

                                   molecule  unit_of_measurement  test_value
0  CC1CC2(C)C(O)CCC2C2C(C)Cc3cc(O)ccc3C12 (stereo not shown)                   nM        13.8
1  CC1CC2(C)C(O)CCC2C2CCC3=CC(=O)CCC3=C12 (stereo not shown)                   nM        6680
2  CC1Cc2cc(O)ccc2C2CCC3(C)C(O)CCC3C12 (stereo not shown)                   nM        10.3

Let us examine a further case.
stdin: For the molecule shown here, CC1CC2(C)C(O)CCC2C2CCc3cc(O)ccc3C12 (stereo not shown) , give the reported IC50.
stdout: 12

* * *

Experiment: Liver S9 Fraction Stability Assay
Details: human liver S9, W/O NADPH, 1 μM
value-kind: % parent molecule remaining after 2 hours at 37° C. (%)
Reply numerically in %, unit not repeated.

compound	unit-of-measurement	test-value
C#C[C@]1(OC(=O)CCCCCCCCCCC)CCC2C3CCC4=CC(=O)CCC4C3CC[C@@]21CC (stereo partly shown)	%	78

stdin: For the compound shown here, CCCCCCCCCCCCOC(=O)O[C@H]1CCC2C3CCC4=CC(=O)CC[C@]4(C)C3CC[C@@]21C (stereo partly shown) [CDB-4883, testosterone dodecylcarbonate] , give the reported % parent molecule remaining after 2 hours at 37° C..
stdout: 74

stdin: And CCCCCCCCCCCCOC(=O)O[C@H]1CCC2C3CCC4=CC(=O)CCC4=C3[C@@H](C)C[C@@]21C (stereo partly shown) ?
stdout: 88

All figures here come from patent US20230227492A1.
